# Test system: A498 renal
# experimental protocol: NCI tumour cell line growth inhibition, 48 h
quantity kind: TGI (µM)
Give bare numbers, in µM.

Worked cases, answers included:
CC1=CC(C)(C)Nc2ccc(Cc3ccc4c(c3)C(C)=CC(C)(C)N4)cc21 | 61.4
Cc1ccc(Nc2nc(=O)c3c([nH]c4ccccc43)s2)cc1 | 37.4

Below is a list of compounds. For each, state its recorded TGI.
1. COc1cc2c3cc1Oc1c(OC)c(OC)cc4c1[C@@H](Cc1ccc(O)c(c1)Oc1ccc(cc1)C[C@@H]3N(C)CC2)N(C)CC4
2. COc1cccc(N2CCN(c3ncnc4cc[nH]c34)CC2)c1
3. O=c1cc(-c2ccccc2)oc2cc(OCCCCCN3CCOCC3)cc(O)c12
4. CN(C)CCNC(=O)c1cccc2c1Oc1cccc([N+](=O)[O-])c1O2

Key:
1. 38.5
2. 79.3
3. 82.9
4. 30.5

----------
# Test system: HOP-92 NSCLC
# experimental protocol: NCI tumour cell line growth inhibition, 48 h; in the data active = GI50 below about 0.43 µM; inactive = the rest
// classify into active, inactive

Solved entries (count: 8):
C=C1C(=O)O[C@H]2[C@H]1CC/C(COC(=O)CCCCCCCC(=O)OC/C1=C/CC[C@@]3(C)O[C@H]3[C@H]3OC(=O)C(=C)[C@@H]3CC1)=C\CC[C@@]1(C)O[C@@H]21 | inactive
Cc1c(Cl)cccc1NC(=O)c1sc2nc3c(cc2c1N)C(=O)CCC3 | active
Cc1cc(Cl)nc(N(CCCNc2ccnc3cc(Cl)ccc23)Cc2cccs2)n1 | inactive
CC(C)c1[nH]nc2c(NCc3ccc(-c4ccccn4)cc3)nc(SCCN(C)C)nc12 | active
CC(=O)O[C@@H]1C2=C(C)C3(CC3)[C@@](C)(O)C(=O)C2=C[C@@]1(C)CO | inactive
CN(C)c1cccc(OC(=O)NCCCl)c1 | inactive
COc1cc(C2c3cc4c(cc3[C@@H](Nc3ccc([N+](=O)[O-])cc3)C3COC(=O)[C@H]23)OCO4)cc(OC)c1O (some centres undefined) | active
CCN(CC)S(=O)(=O)c1cccc(-c2ccc3c(NC(=O)C4CC4)n[nH]c3c2)c1 | inactive

Exercise: Test call for this molecule, please: `Cn1cc(C2=C(c3cc[nH]c3)C(=O)NC2=O)c2ccccc21`
Key: inactive

----------
Please provide measured TGI for the entries that follow.
# Test system: SNB-78 CNS
# experimental protocol: NCI tumour cell line growth inhibition, 48 h

COc1ccc(/C=N/N=C(\N)NO)cc1F | > 100 µM
COC(=O)C(=O)C(C(C)=O)C(=O)NCc1ccccc1 (stereo not given) | > 100 µM
CCOC(=O)C(=O)Nc1c(C)cccc1C(C)(C)C | > 100 µM
COc1cccc2c(SCC(=O)Nc3ccccc3-c3ccccc3NC(=O)CSc3c4ccccc4nc4c(OC)cccc34)c3ccccc3nc12 | > 100 µM

Hey, can you go through the list below and give me TGI for every item?
1. Cc1cc(N(CCC#N)CCC#N)ccc1/C=C(\NC(=O)/C=C/c1ccccc1)C(=O)Nc1ccc(Cl)cc1
2. CN(c1ccccc1)c1nc(=[N+]2CCCC2)ss1
3. c1ccc2c(c1)SP1Sc3ccccc3P21 (stereo not given)
4. CC(C)=CCC/C(C)=C/Cc1c(O)c(C)cc2c1[nH]c1cc(O)ccc12
5. CN(CCCN1C(=O)c2cccc3cc([N+](=O)[O-])cc(c23)C1=O)CCN(C)CCCN1C(=O)c2cccc3cc([N+](=O)[O-])cc(c23)C1=O
6. CN(C)C(=S)/N=c1\ssc(=S)n1Cc1ccco1

Key:
["> 100 µM", "> 100 µM", "> 100 µM", "> 25 µM", "> 39.3 µM", "> 100 µM"]
